# Assay Notes: blood-stage malaria parasite viability loss – strain 3D7, DAPI fluorescence, 100 nL, primary screen (AID 1184);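 note: parasites grown inside human red blood cells in medium with human serum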
# Study Conditions: P. falciparum 3D7 growth, 3 d, higher = more signal
Everything with z-score lower than -0.9 is condition not met; everything else, including exactly -0.9, is condition met.

Task item: Hi team, for "CCOC(=O)C1=CC[C@@H](c2cccc(Cl)c2)N(S(=O)(=O)c2ccc(C)cc2)[C@H]1c1ccc(C#N)cc1" , is the recorded z-score at or above -0.9?
Reply: condition not met

Task item: Hi team, for "COc1ccc([Si](C)(C)[C@H]2[C@H](CC(=O)N(CCO)Cc3ccccc3)O[C@@]3(C(=O)N(Cc4cccc(N5C(=O)c6cccc7cccc5c67)c4)c4ccccc43)[C@@H]2C)cc1" , is the recorded z-score at or above -0.9?
Reply: condition not met

Task item: Hi team, for "CCCC[C@@H]1C[C@H]1[C@@H](NC(=O)c1ccccc1)c1ccc(-c2ccccc2)cc1" , is the recorded z-score at or above -0.9?
Reply: condition met

Task item: Hi team, for CC(C)OC(=O)C1=CCC(c2cccc(Cl)c2)O1 (stereo not given) , is the recorded z-score at or above -0.9?
Reply: condition not met

Task item: Hi team, for "[N-]=[N+]=NCc1ccccc1C[C@]1(C(N)=O)N=C(c2ccc(OCCCO)cc2)O[C@H]1c1ccccc1N=[N+]=[N-]" , is the recorded z-score at or above -0.9?
Reply: condition not met

Task item: Hi team, for C=CCC(OC(C)=O)[C@@H]1[C@@H](N(Cc2ccc(-c3ccccc3)cc2)C(=O)c2ccc(C)cc2)c2cc(OCCCO)ccc2N1C(=O)c1ccc2ccccc2n1 (stereo not given in full) , is the recorded z-score at or above -0.9?
Reply: condition met

Next:
Task item: Hi team, for "CO[C@H]1O[C@H](CO)[C@@H](OC(=O)Nc2cccc(F)c2)[C@H](OC(=O)Nc2ccccc2-c2ccccc2)[C@@H]1OC(=O)Nc1ccccc1-c1ccccc1" , is the recorded z-score at or above -0.9?
Reply: condition not met

Task item: Hi team, for "O=C1O[C@@H](c2ccccc2)[C@@H](c2ccccc2)N2[C@@H](c3ccccc3OCCO)[C@]3(C(=O)Nc4ccc(C#CC5(O)CCCCCC5)cc43)[C@@H](C(=O)NC[C@H](O)c3ccccc3)[C@H]12" , is the recorded z-score at or above -0.9?
Reply: condition not met

---

# Tested on: XIP peptide (Xip251-270) binding
# Assay Notes: XIP fragment 251-270 binding compounds – biochemical, small-molecule microarray, fluorescence 635/667 nm, 0.1 µg/mL protein, primary screen (AID 1182)
# Study Conditions: fluorescent protein binding, 635 nm, higher = more signal, called active from +8 up or from −8 down
Measured Parameter: composite z-score
Would you mind answering with just the numeric figure?

Task item: Return composite z-score measured with XIP peptide (Xip251-270) binding given this compound: C=CCC(OC(C)=O)[C@@H]1[C@@H](N(Cc2ccc(-c3ccccc3)cc2)C(=O)c2ccc(C)cc2)c2cc(OCCCO)ccc2N1C(=O)c1ccc2ccccc2n1 (stereo partly specified)
Reply: -0.218

Task item: Return composite z-score measured with XIP peptide (Xip251-270) binding given this compound: "CC(C)(C)OC(=O)CC[C@@]1(C(N)=O)N=C(c2ccc(OCCCO)cc2)O[C@@H]1c1ccccc1N=[N+]=[N-]"
Reply: 0.0344

Task item: Return composite z-score measured with XIP peptide (Xip251-270) binding given this compound: CCN(CC)c1ccc(N2CC=CC34O[C@@H]5/C=C\CCCOC(=O)C5[C@H]3C(=O)N(CCCO)[C@@H]4C2=O)cc1 (stereo partly specified)
Reply: 0.828

Next:
Task item: Return composite z-score measured with XIP peptide (Xip251-270) binding given this compound: "COCCn1c(C(=O)N(C)C)cc2c1C[C@H]1CN(C(=O)c3ccccc3)[C@@](Cc3ccc(F)cc3)(C(=O)OC)[C@@H]21"
Reply: 0.112

Task item: Return composite z-score measured with XIP peptide (Xip251-270) binding given this compound: "COc1c(C)cc(-c2cc3c(c(-c4ccccc4)n2)[Si](C(C)C)(C(C)C)O[C@H]3c2ccccc2)cc1C"
Reply: 0.648

Task item: Return composite z-score measured with XIP peptide (Xip251-270) binding given this compound: "COC(=O)[C@@]1(Cc2ccc(F)cc2)[C@H]2c3cc(C(=O)N4CCCC4)n(CCc4ccc(OC)c(Br)c4)c3C[C@H]2CN1C(=O)c1ccccc1"
Reply: -0.0505

---

# Assay Notes: probe aLAP1 signal on lysate-treated microarray – cell lysate, small-molecule microarray, COS7 lysate, primary screen (AID 1124);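 note: lysate comes from COS7 cells expressing LAP1 and is applied at 0.3 µg/mL; score merges spot fluorescence near 667 nm with signal-to-noise over triplicate slides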
# Study Conditions: probe aLAP1, fluorescence, higher = more signal
Measured Parameter: composite z-score
Would you mind answering with just the numeric figure?

Task item: Which composite z-score is listed for C=CCC(OC(C)=O)[C@@H]1[C@@H](N(Cc2ccc(-c3cccc(C(F)(F)F)c3)o2)C(=O)Cc2ccc(OC)cc2)c2cc(OCCCO)ccc2N1C(=O)Cc1ccc(OC)cc1 (some centres undefined) ?
Reply: -0.39

Task item: Which composite z-score is listed for O=C1C2C=CC(C(O)c3ccccn3)N(Nc3ccccc3F)C2C(=O)N1c1ccccc1 (centres undefined) ?
Reply: 0.753

Next:
Task item: Which composite z-score is listed for "C=C[C@H](OC)[C@@H](OC(=O)Nc1ccc(SC)cc1)c1ccc(OCCO)cc1" ?
Reply: 0.503

Task item: Which composite z-score is listed for O=C(NCC(O)CO)[C@@]1(Cc2ccccc2)N=C(c2ccc(OCCCO)cc2)O[C@H]1c1ccccc1 (some centres undefined) ?
Reply: 1.01

---

# Assay Notes: ATP-based viability of Huh7 replicon cells – cell-based, CellTiter-Glo luminescence, basal, 48 h, cytotoxicity control for HCV replication inhibitor project, primary screen (AID 1143);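 note: Huh7 hepatoma cells carrying a hepatitis C replication reporter with no stimulus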
# Study Conditions: higher = more signal, called active from +8 up or from −8 down
Recorded z-score by entry
Would you mind answering with just the numeric figure?

Task item: Which z-score is listed for "O=C1O[C@@H](c2ccccc2)[C@@H](c2ccccc2)N2[C@@H](c3ccccc3OCCO)[C@]3(C(=O)Nc4ccc(C#CC5(O)CCCCCC5)cc43)[C@@H](C(=O)NC[C@H](O)c3ccccc3)[C@H]12" ?
Reply: -6.25

Task item: Which z-score is listed for [N-]=[N+]=NCc1ccccc1[C@H]1OC(c2ccc(OCCCO)cc2)=N[C@@]1(Cc1ccccc1)C(=O)NCC(O)CO (stereo partly specified) ?
Reply: -2.11

Next:
Task item: Which z-score is listed for CC(C)(C)OC(=O)CC[C@@]1(C(=O)NCC(O)CO)N=C(c2ccc(OCCCO)cc2)O[C@@H]1c1ccccc1 (stereo partly specified) ?
Reply: 0.496

Task item: Which z-score is listed for CC1CC/C=C\[C@H]2OC34C=CCN(Cn5nnc6ccccc65)C(=O)[C@H]3N(CCCO)C(=O)[C@@H]4C2C(=O)O1 (stereo partly specified) ?
Reply: -0.382

Task item: Which z-score is listed for "C=CCOC(=O)[C@@H]1[C@H]2C(=O)O[C@H](c3ccccc3)[C@H](c3ccccc3)N2[C@H](c2ccc(OCCOC(=O)[C@H]3C[C@H]4C(=O)N[C@@H](Cc5ccccc5)C(=O)N4[C@H]3c3ccc(O)cc3)cc2)[C@@]12C(=O)Nc1ccc(I)cc12" ?
Reply: -0.409

Task item: Which z-score is listed for O=C1C2C=CC(C(O)C3CC=CCC3)N(n3cnnc3)C2C(=O)N1Cc1ccccc1 (stereo unspecified) ?
Reply: 0.227

---

Recorded composite z-score by entry
# Tested on: Chordin-like protein 2 (CHRDL2)
# Assay Notes: compounds binding chordin-like 2 – biochemical, small-molecule microarray, 635 nm fluorescence, primary screen (AID 1126);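 note: printed compound slides probed with Chrdl2 protein at 4 µg/mL for 1 h at 4 C; score merges 667 nm emission intensity with signal to noise over three replicate slides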
# Study Conditions: fluorescence 635 nm, higher = more signal
Would you mind answering with just the numeric figure?

Past entries and their recorded results:
Task item: Which composite z-score is listed for "COC(=O)[C@@]1(Cc2ccccc2)[C@H]2c3cc(C(=O)N(C)C)n(Cc4ccccc4)c3C[C@H]2CN1C(=O)c1ccccc1" ?
Reply: -0.539

Task item: Which composite z-score is listed for "CC(=O)NCCCC[C@@H]1NC(=O)[C@@H]2C[C@H](C(=O)NCc3ccc(F)cc3)[C@H](c3ccc(O)cc3)N2C1=O" ?
Reply: 0.526

Task item: Which composite z-score is listed for "[N-]=[N+]=NCc1ccccc1[C@H]1OC(c2ccc(OCCCO)cc2)=N[C@@]1(Cc1ccccc1)C(=O)O" ?
Reply: -0.469

Task item: Which composite z-score is listed for C=CCC(OC(C)=O)[C@@H]1[C@@H](N(Cc2cc3ccccc3o2)C(=O)c2ccc(-c3ccccc3)cc2)c2cc(OCCCO)ccc2N1C(=O)Cc1ccc2ccccc2c1 (stereo partly specified) ?
Reply: 0.213

Task item: Which composite z-score is listed for "C=CCOC(=O)[C@H]1[C@@H]2C(=O)O[C@@H](c3ccccc3)[C@@H](c3ccccc3)N2[C@@H](c2ccc(OCCOC(=O)[C@@H]3C[C@@H]4C(=O)NCC(=O)N4[C@@H]3c3ccc(O)cc3)cc2)[C@]12C(=O)Nc1ccc(I)cc12" ?
Reply: 1.09

// switching to the query compound
Task item: Which composite z-score is listed for "C=CCN1C(=O)[C@@]2(O[C@@H](CCO)[C@H]([Si](C)(C)c3ccc(OC)cc3)[C@H]2C)c2cc(N3C(=O)COc4ccccc43)ccc21" ?
Reply: -0.317
